conditions: in isopropyl acetate, 313.25 K
metric_name: solubility (mole fraction)
Answer with a bare number; do not write a unit.

input: Fill blank: measured solubility (mole fraction) of the compound `O=C(O)c1ccccc1` is ____.
output: 0.209

---

settings: in n-propanol, 320.77 K
metric_name: solubility (mole fraction)
Answer with a bare number; do not write a unit.

input: Fill blank: measured solubility (mole fraction) of the compound `O=C(O)c1ccccc1` is ____.
output: 0.266

---

details: in isobutanol, 312.61 K
metric_name: solubility (mole fraction)

input: Fill blank: measured solubility (mole fraction) of the molecule `CC(=O)Oc1ccccc1C(=O)O` is ____.
output: 0.0567

Each recorded value in this set is attributed to BigSolDB 2.1.
